Measured inhibition at 0.3 µM, listed per entry for reference.
- Experimental target: CHK-1 kinase (Homo sapiens (Human))
- Sequence (O14757 whole entry): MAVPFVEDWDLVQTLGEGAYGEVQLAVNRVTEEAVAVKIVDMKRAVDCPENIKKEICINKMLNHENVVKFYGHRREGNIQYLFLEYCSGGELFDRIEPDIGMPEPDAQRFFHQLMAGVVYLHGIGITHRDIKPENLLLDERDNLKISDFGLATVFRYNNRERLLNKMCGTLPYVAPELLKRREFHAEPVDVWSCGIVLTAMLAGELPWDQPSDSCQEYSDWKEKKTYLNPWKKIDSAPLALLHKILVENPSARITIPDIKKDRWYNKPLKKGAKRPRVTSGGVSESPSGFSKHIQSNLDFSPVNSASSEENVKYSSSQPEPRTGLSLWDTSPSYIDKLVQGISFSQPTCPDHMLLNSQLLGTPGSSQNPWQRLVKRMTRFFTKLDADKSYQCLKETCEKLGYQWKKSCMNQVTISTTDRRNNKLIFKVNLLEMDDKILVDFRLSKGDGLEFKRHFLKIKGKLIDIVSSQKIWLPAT
- Protocol description: CHK-1 % inhibition kinase assay (TR-FRET)
- Format: biochemical
- Test conditions: CHK1 enzyme, compound 300 nM, ATP 15 μM
Recorded endpoint: inhibition at 0.3 µM (%)

>>> reported("COc1ccccc1-c1cc(Nc2cnc(C#N)cn2)no1")
36
>>> reported("N#Cc1cnc(Nc2cc(-c3ccccc3OC3CC4(CNC4)C3)on2)cn1")
95.5
>>> reported("CN1CCOC(COc2ccccc2-c2cc(Nc3cnc(C#N)cn3)no2)C1 (stereo not drawn)")
64

----------
Measured microsomal CLint at 1 μM, listed per entry for reference.
- Protocol description: Microsomal stability assay, mouse liver microsome
- Type: in vitro ADME
- Test conditions: liver microsomes, pH 7.4, 0.2 mg/mL, 1 μM compound, 37° C., read-out: Clint MLM
Recorded endpoint: microsomal CLint at 1 μM (µL/min/mg)

>>> reported("N#Cc1cnc(Nc2cc(-c3ccccc3OCC3CNC3)on2)cn1")
50
>>> reported("N#Cc1cnc(Nc2cc(-c3ccccc3O[C@H]3CC[C@@H](N)CC3)on2)cn1")
25
>>> reported("COc1cc(C2=CCNCC2)ccc1-c1cc(Nc2cnc(C#N)cn2)no1")
239
>>> reported("N#Cc1cnc(Nc2cc(-c3cc4ccccc4cc3OCC3CCCNC3)[nH]n2)cn1 (stereo not drawn)")
111
>>> reported("N#Cc1cnc(Nc2cc(-c3ccccc3OC3CC(N)C3)on2)cn1 (stereo not drawn)")
86
>>> reported("N#Cc1cnc(Nc2cc(-c3cc4ccccc4cc3OCCCN)[nH]n2)cn1")
118
